- protocolDetails: FIG. 10
Structures can show the parent of a compound that is named as a salt. Peptide text beside a SMILES is read from it. * marks the point of attachment. For = O=C*
Reported After 4 weeks @ 40°C | Ala (area%) is given for each of the following compounds.

These recorded examples may help you get a feel for the data.
Look at this compound and give its reported After 4 weeks @ 40°C | Ala (area%). CSCC[C@H](NC=O)C(=O)N[C@@H](CC(=O)O)C(=O)NCC(=O)N[C@@H](CS)C(=O)N[C@@H](CCC(=O)O)C(=O)N[C@@H](CC(C)C)C(=O)O [NH3 Di salt] (For-MDGCEL-OH) 0,00 area%

Look at this compound and give its reported After 4 weeks @ 40°C | Ala (area%). CSCC[C@H](NC=O)C(=O)N[C@@H](CC(=O)O)C(=O)NCC(=O)N[C@@H](CS)C(=O)N[C@@H](CCC(=O)O)C(=O)N[C@@H](CC(C)C)C(=O)O [NH3 Tri salt] (For-MDGCEL-OH) 0,00 area%

Look at this compound and give its reported After 4 weeks @ 40°C | Ala (area%). CSCC[C@H](NC=O)C(=O)N[C@@H](CC(=O)O)C(=O)NCC(=O)N[C@@H](CS)C(=O)N[C@@H](CCC(=O)O)C(=O)N[C@@H](CC(C)C)C(=O)O [TRO Di salt] (For-MDGCEL-OH) 0,00 area%

Look at this compound and give its reported After 4 weeks @ 40°C | Ala (area%). CSCC[C@H](NC=O)C(=O)N[C@@H](CC(=O)O)C(=O)NCC(=O)N[C@@H](CS)C(=O)N[C@@H](CCC(=O)O)C(=O)N[C@@H](CC(C)C)C(=O)O [NMG Di salt] (For-MDGCEL-OH) 0,00 area%

---
Look at this compound and give its reported After 4 weeks @ 40°C | Ala (area%). CSCC[C@H](NC=O)C(=O)N[C@@H](CC(=O)O)C(=O)NCC(=O)N[C@@H](CS)C(=O)N[C@@H](CCC(=O)O)C(=O)N[C@@H](CC(C)C)C(=O)O [LYS Di salt] (For-MDGCEL-OH) 0,47 area%
